Measured values drawn from patent US20180127503A1 for this set.

Molecular target: T1, human ROR2 expressed on the cell surface (human, UniProt Q01974 34-943)
T1 construct: Endogenous ROR2 of human tumour cell lines; also called cell surface ROR2; ROR2 on tumour cell lines
T1 sequence (Q01974 34-943 limits assumed): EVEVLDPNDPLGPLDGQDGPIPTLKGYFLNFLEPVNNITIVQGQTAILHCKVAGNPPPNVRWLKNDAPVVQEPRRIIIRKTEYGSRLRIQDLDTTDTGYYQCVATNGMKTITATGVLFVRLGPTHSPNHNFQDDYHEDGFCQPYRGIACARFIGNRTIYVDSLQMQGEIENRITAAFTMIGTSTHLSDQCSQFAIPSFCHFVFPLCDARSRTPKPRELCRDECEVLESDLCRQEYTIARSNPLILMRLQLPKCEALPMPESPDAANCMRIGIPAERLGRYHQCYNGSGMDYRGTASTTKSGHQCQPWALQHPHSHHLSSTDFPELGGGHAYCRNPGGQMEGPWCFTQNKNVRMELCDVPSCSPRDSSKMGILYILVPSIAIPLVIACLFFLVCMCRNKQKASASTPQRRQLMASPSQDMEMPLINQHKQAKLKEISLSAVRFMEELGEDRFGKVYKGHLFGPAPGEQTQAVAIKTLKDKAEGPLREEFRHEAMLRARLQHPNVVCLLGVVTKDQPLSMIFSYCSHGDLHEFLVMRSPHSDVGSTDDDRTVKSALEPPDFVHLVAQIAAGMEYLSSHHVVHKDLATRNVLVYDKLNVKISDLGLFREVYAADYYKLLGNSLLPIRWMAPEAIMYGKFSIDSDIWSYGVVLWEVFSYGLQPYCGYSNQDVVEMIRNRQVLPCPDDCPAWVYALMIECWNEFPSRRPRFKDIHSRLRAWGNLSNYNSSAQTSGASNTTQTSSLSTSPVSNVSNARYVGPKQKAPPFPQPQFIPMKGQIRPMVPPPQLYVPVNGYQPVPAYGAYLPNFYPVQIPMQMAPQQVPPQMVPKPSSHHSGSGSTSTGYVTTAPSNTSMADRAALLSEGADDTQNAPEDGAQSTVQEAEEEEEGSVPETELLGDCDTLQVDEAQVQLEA
Test: flow cytometry, HTB27 cells (breast CA)
Design: unit not given here
PARAMETER: binding intensity

**Query** Looking for the measured binding intensity of ROR2-241 full length human IgG1 antibody (antibody, V domains shown) VH: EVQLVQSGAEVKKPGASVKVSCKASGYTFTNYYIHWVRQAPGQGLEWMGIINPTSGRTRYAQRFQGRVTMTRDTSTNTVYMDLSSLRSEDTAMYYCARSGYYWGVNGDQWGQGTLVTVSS VL: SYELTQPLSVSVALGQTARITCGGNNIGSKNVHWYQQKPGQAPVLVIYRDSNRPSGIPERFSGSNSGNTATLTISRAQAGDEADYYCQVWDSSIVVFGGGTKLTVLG , can you help?
**Result** 24
